Sourced from patent US20070213359A1

Documented Ki across a set of molecules
# tgt: GHSR1a receptor (Homo sapiens, UniProt Q92847)
# Construct: expressed in transfected cells; host or cells: HEK293 (membranes)
# Sequence (Q92847 whole entry): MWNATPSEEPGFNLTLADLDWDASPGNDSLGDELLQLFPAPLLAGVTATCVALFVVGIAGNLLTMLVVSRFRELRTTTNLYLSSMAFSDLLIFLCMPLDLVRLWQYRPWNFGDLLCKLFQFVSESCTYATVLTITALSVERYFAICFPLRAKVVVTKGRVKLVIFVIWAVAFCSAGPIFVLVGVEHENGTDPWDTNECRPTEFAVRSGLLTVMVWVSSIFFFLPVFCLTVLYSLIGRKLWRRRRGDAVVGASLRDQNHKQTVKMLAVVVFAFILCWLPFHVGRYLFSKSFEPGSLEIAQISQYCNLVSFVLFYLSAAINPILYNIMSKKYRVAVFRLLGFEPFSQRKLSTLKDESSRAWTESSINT
# assay_overview: 125I-Ghrelin binding assay
# measurement_parameters: Binding pKi, displacement of 125I-ghrelin (0.053 nM), membranes of HEK293 cells transfected with GHSR1a; Cheng-Prussoff; '—' not defined
Number only, in nM; omit the unit.

Would you please look over these solved cases?
[in] Can you look up the measured Ki of `COc1cccc2c(C(=O)NCc3cccc(Cl)c3)cn(CCCN3[C@@H]4CC[C@H]3C[C@@H](CC(=O)c3ccccc3)C4)c12` for me?
[out] 63.1

[in] Can you look up the measured Ki of `CCCCC1CCN(CCCn2cc(C(=O)c3ccccc3)c3cccc(OC)c32)CC1` for me?
[out] 200

[in] Can you look up the measured Ki of `COc1cccc2c(C(=O)C3CC3)cn(CCCN3CCCN(Cc4ccccc4Cl)CC3)c12` for me?
[out] 7.94

---
[in] Can you look up the measured Ki of COc1cccc2c(C(=O)NCc3cccc(Cl)c3)cn(CCCN3C4CCC3CC(CCc3ccccc3)C4)c12 (stereo not shown) for me?
[out] 7.94

---

Documented RSAT Eff(%) across a set of compounds
# tgt: Ghrelin receptor (Homo sapiens)
# assay_overview: Receptor Selection and Amplification Technology (R-SAT) assay
# Assay type: cell-based
# Parameters: expressed in transfected cells; host or cells: NIH3T3
# measurement_parameters: percent inhibition at saturating ligand, normalized to reference ligand Substance P analog = 100%
Number only, in %; omit the unit.

[in] Can you look up the measured RSAT Eff(%) of COc1cccc2c(C(=O)NCC(C)C)cn(CCCN3C4CCC3CC(Oc3ccc(Cl)cc3)C4)c12 (stereo not drawn) for me?
[out] 107

[in] Can you look up the measured RSAT Eff(%) of `COc1cccc2c(C(=O)NCC(C)C)cn(CCCN3CCC(c4nc(-c5ccncc5)no4)CC3)c12` for me?
[out] 93

[in] Can you look up the measured RSAT Eff(%) of COc1cccc2c(C(C)=O)cn(CCCN3CCC(c4nc5ccccc5s4)CC3)c12 [drawing 280] for me?
[out] 128

[in] Can you look up the measured RSAT Eff(%) of CC(=O)c1cn(CCCN2CCC(c3nc4ccccc4s3)CC2)c2ccccc12 [drawing 466] for me?
[out] 99

---
[in] Can you look up the measured RSAT Eff(%) of `COc1cccc2c(C(C)=O)cn(CCCN3CCN(c4ncc(C(F)(F)F)cc4Cl)CC3)c12` for me?
[out] 103

[in] Can you look up the measured RSAT Eff(%) of `COc1cccc2c(C(C)=O)cn(CCCN3CCC(Oc4ccccc4Cl)CC3)c12` for me?
[out] 98

[in] Can you look up the measured RSAT Eff(%) of COc1cccc2c(C(C)=O)cn(CCCN3CCC(Oc4ccc(Cl)cc4)CC3)c12 [drawing 300] for me?
[out] 129

[in] Can you look up the measured RSAT Eff(%) of COc1cccc2c(C(C)=O)cn(CCCN3C4CCC3CC(Oc3ccc(Cl)cc3)C4)c12 (stereo not drawn) for me?
[out] 113

[in] Can you look up the measured RSAT Eff(%) of `COc1ccccc1C1CCN(CCCn2cc(C(C)=O)c3cccc(OC)c32)CC1` for me?
[out] 109

---

# tgt: Ghrelin receptor (Homo sapiens, UniProt Q92847)
# Sequence (Q92847 whole entry): as above
# assay_overview: Receptor Selection and Amplification Technology (R-SAT) assay
# Assay type: cell-based
# Design: expressed in transfected cells; host or cells: NIH3T3
# measurement_parameters: percent inhibition at saturating ligand, normalized to reference ligand Substance P analog = 100%; read-out: RSAT Eff(%)
outcome_measure: Emax (%)
Number only, in %; omit the unit.

[in] Can you look up the measured Emax of `CC(=O)c1cn(CCCN2CCCN(Cc3ccccc3Cl)CC2)c2ncccc12` for me?
[out] 115

[in] Can you look up the measured Emax of COc1ccc2c(c1)c(C(C)=O)cn2CCCN1C2CCC1CC(OCC1CC1)C2 (centres unmarked) for me?
[out] 74

[in] Can you look up the measured Emax of CC(=O)c1cn(CCCN2C3CCC2CC(CC(=O)c2ccccc2)C3)c2c(C)cccc12 (centres unmarked) for me?
[out] 91

[in] Can you look up the measured Emax of `CC(=O)c1c(C)n(CCCN2CCC(Oc3cccc(Cl)c3)CC2)c2c(Br)cccc12` for me?
[out] 35

Proceed to the following item.
[in] Can you look up the measured Emax of `CC(=O)c1cn(CCCN2CCCN(Cc3ccccc3Cl)CC2)c2c(C)cccc12` for me?
[out] 111

---

# tgt: GHSR1a receptor (Homo sapiens, UniProt Q92847)
# Construct: expressed in transfected cells; host or cells: HEK293 (membranes)
# assay_overview: 125I-Ghrelin binding assay
# measurement_parameters: displacement of 125I-ghrelin (0.053 nM), membranes of HEK293 cells transfected with GHSR1a; Cheng-Prussoff; '—' not defined; read-out: Binding pKi (converted)
// classify: if (Ki < 100 nM) criterion met else criterion not met

[in] Threshold test, Ki < 100 nM: CC(=O)c1cn(CCCN2CCC(Oc3ccc(F)cc3)CC2)c2ccccc12 [drawing 551]
[out] criterion not met

---
[in] Threshold test, Ki < 100 nM: CC(=O)c1cn(CCCN2C3CCC2CC(CCc2ccccc2)C3)c2ccccc12 (stereo not shown) [drawing 267]
[out] criterion not met

[in] Threshold test, Ki < 100 nM: `CCc1cccc2c(C(C)=O)cn(CCCN3CCC(Oc4cccc(Cl)c4)CC3)c12`
[out] criterion met

[in] Threshold test, Ki < 100 nM: COc1cccc2c(C#N)cn(CCCN3C4CCC3CC(Oc3ccccc3Cl)C4)c12 (stereo not shown)
[out] criterion not met

---

# tgt: Ghrelin receptor (Homo sapiens, UniProt Q92847)
# assay_overview: Receptor Selection and Amplification Technology (R-SAT) assay
# Assay type: cell-based
# Parameters: expressed in transfected cells; host or cells: NIH3T3
# measurement_parameters: negative logarithm of ligand concentration causing 50% inhibition of constitutive receptor response; transfected NIH3T3 cells; '—' not defined (nd used separately); read-out: RSAT pIC50 (converted)
// classify: if (IC50 < 20 nM) met else not met

Reference set, count: 5
[in] Threshold test, IC50 < 20 nM: `CCCCCC=C1CCN(CCCn2cc(C(C)=O)c3ccccc32)CC1`
[out] not met

[in] Threshold test, IC50 < 20 nM: CCCOC1CCN(CCCn2cc(C(C)=O)c3cccc(OC)c32)CC1 [drawing 333]
[out] met

[in] Threshold test, IC50 < 20 nM: `CCCCC1CCN(CCCn2cc(C(=O)CC(C)C)c3ccccc32)CC1`
[out] not met

[in] Threshold test, IC50 < 20 nM: CC(=O)c1cn(CCCN2C3CCC2CC(CCc2ccccc2)C3)c2c(Br)cccc12 (stereo not shown)
[out] met

[in] Threshold test, IC50 < 20 nM: COc1ccc2c(c1)c(C(C)=O)cn2CCCN1C2CCC1CC(OCC1CC1)C2 (stereo not shown)
[out] not met

---
[in] Threshold test, IC50 < 20 nM: `CC(C)CC(=O)c1cn(CCCN2CCC(Oc3ccc(Cl)cc3)CC2)c2ccccc12`
[out] not met

[in] Threshold test, IC50 < 20 nM: COc1cccc2c(C(=O)NCC(C)C)cn(CCCN3C4CCC3CC(Oc3ccccc3Cl)C4)c12 (stereo not shown)
[out] met

[in] Threshold test, IC50 < 20 nM: `COc1cccc2c(C(C)=O)cn(CCCN3CCN(c4cccc(Cl)c4Cl)CC3)c12`
[out] met

[in] Threshold test, IC50 < 20 nM: `CC(=O)c1cn(CCCN2CCCN(CCc3ccccc3)CC2)c2ncccc12`
[out] not met

[in] Threshold test, IC50 < 20 nM: `CC(=O)c1cn(CCCN2CCC(c3nc(-c4cccnc4)no3)CC2)c2c(Br)cccc12`
[out] not met

---

# tgt: Ghrelin receptor (Homo sapiens, UniProt Q92847)
# assay_overview: Receptor Selection and Amplification Technology (R-SAT) assay
# Type: cell-based
# Design: expressed in transfected cells; host or cells: NIH3T3
# measurement_parameters: percent inhibition at saturating ligand, normalized to reference ligand Substance P analog = 100%; read-out: RSAT Eff(%)
outcome_measure: Emax (%)
Number only, in %; omit the unit.

Would you please look over these solved cases?
[in] Can you look up the measured Emax of COc1ccc2c(c1)c(C(C)=O)cn2CCCN1CCN(C(C)c2ccccc2)CC1 (centres unmarked) for me?
[out] 77

[in] Can you look up the measured Emax of CC(=O)c1cn(CCCN2C3CCC2CC(CCc2ccc(Cl)cc2)C3)c2c(Br)cccc12 (centres unmarked) for me?
[out] 106

[in] Can you look up the measured Emax of CC(=O)c1cn(CCCN2C3CCC2CC(Oc2ccc(F)cc2)C3)c2ncccc12 (centres unmarked) for me?
[out] 77

[in] Can you look up the measured Emax of CC(=O)c1cn(CC(C)CN2CCC(c3nc4ccccc4s3)CC2)c2ccccc12 (centres unmarked) for me?
[out] 78

[in] Can you look up the measured Emax of `COc1cccc2c(C(C)=O)cn(CCCN3CCC(S(=O)(=O)c4ccc(Cl)cc4)CC3)c12` for me?
[out] 71

---
[in] Can you look up the measured Emax of `COc1ccc2c(C(C)=O)cn(CCCN3CCC(C(=O)c4ccccc4)CC3)c2c1` for me?
[out] 66

[in] Can you look up the measured Emax of `CC(=O)c1cn(CCCN2CCCN(Cc3ccccc3Cl)CC2)c2c(C#N)cccc12` for me?
[out] 98

[in] Can you look up the measured Emax of `COc1cccc2c(C#N)cn(CCCN3CCN(Cc4ccc(Cl)cc4Cl)CC3)c12` for me?
[out] 30

[in] Can you look up the measured Emax of `O=C(c1cn(CCCN2CCC(Oc3ccccc3Cl)CC2)c2ccccc12)C(F)(F)F` for me?
[out] 81

[in] Can you look up the measured Emax of `CC(=O)c1cn(CCCN2CCC(c3nc(-c4cccnc4)no3)CC2)c2c(C)cccc12` for me?
[out] 103
